// reported IC50 per item
target: CDK5/p25 (Homo sapiens); assay: Protein kinase assay, CDK5/p25; type: biochemical; details: 15 µM ATP, 30 °C, triplicates
Sequence (Q00535 whole entry, species assumed): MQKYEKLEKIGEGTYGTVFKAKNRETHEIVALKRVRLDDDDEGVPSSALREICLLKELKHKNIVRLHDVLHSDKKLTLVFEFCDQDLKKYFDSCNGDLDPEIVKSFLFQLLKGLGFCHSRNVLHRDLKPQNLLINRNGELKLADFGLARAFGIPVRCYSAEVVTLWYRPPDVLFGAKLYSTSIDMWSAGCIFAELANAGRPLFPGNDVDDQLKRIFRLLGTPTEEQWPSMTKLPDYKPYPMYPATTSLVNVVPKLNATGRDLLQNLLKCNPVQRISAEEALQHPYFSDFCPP
Sequence (Q15078 99-307 partner limits assumed, species assumed): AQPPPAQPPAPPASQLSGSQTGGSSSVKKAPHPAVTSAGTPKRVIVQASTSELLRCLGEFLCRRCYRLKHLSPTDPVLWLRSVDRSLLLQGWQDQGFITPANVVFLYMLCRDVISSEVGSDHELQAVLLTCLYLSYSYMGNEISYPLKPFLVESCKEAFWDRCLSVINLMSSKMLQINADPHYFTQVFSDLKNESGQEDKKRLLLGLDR

compound | comparison_sign | IC50 [µM]
C[C@@]12CCC(=O)c3coc(c31)C(=O)c1cc3c(O)ccc(OS(=O)(=O)O)c3cc12 [Compound 12] | = | 2.2
C[C@@]12CCCc3coc(c31)C(=O)c1cc3c(cc12)C(=O)C1=C(NCCS1(=O)=O)C3=O [Compound 6, adociaquinone B] | > | 10
CO[C@]12OC(O)C3=C1[C@@](C)(CCC3=O)c1cc3c(OS(=O)(=O)O)ccc(O)c3cc1C2=O (stereo partly shown) [Compound 13] | > | 10
C[C@@]12CCCc3coc(c31)C(=O)c1cc3c(cc12)C(=O)C=C(NCCS(=O)(=O)O)C3=O [Compound 8, secoadociaquinone B] | = | 6

----------
Attribute: pIC50
molecular target: casein kinase 1 (CK1); test: Protein kinase assay, casein kinase 1; conditions: 15 µM ATP, 30 °C, triplicates
pIC50: −log10 of the molar value.

compound | pIC50
C[C@@]12CCC(=O)c3coc(c31)C(=O)c1cc3c(O)ccc(OS(=O)(=O)O)c3cc12 [Compound 12] | 5.28
C[C@@]12CCCc3coc(c31)C(=O)c1cc3c(cc12)C(=O)C1=C(NCCS1(=O)=O)C3=O [Compound 6, adociaquinone B] | < 5.00
C[C@@]12CCCc3coc(c31)C(=O)c1cc3c(cc12)C(=O)C=C(NCCS(=O)(=O)O)C3=O [Compound 8, secoadociaquinone B] | < 5.00
CO[C@]12OC(O)C3=C1[C@@](C)(CCC3=O)c1cc3c(OS(=O)(=O)O)ccc(O)c3cc1C2=O (stereo partly shown) [Compound 13] | < 5.00

----------
Molecular target: CDK9/cyclin T (Homo sapiens, UniProt P50750)
Sequence (P50750 whole entry, species assumed): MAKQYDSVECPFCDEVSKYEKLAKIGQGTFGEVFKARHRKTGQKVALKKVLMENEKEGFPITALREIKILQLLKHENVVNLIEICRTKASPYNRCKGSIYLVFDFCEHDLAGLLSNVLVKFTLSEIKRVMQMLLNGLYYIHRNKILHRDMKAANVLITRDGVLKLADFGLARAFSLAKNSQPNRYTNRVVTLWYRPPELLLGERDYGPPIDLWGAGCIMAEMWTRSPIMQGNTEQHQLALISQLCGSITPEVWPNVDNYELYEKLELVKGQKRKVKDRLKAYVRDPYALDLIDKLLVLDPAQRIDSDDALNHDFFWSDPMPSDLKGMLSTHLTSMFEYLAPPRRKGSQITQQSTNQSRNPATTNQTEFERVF
Sequence (O60563 whole entry partner, species assumed): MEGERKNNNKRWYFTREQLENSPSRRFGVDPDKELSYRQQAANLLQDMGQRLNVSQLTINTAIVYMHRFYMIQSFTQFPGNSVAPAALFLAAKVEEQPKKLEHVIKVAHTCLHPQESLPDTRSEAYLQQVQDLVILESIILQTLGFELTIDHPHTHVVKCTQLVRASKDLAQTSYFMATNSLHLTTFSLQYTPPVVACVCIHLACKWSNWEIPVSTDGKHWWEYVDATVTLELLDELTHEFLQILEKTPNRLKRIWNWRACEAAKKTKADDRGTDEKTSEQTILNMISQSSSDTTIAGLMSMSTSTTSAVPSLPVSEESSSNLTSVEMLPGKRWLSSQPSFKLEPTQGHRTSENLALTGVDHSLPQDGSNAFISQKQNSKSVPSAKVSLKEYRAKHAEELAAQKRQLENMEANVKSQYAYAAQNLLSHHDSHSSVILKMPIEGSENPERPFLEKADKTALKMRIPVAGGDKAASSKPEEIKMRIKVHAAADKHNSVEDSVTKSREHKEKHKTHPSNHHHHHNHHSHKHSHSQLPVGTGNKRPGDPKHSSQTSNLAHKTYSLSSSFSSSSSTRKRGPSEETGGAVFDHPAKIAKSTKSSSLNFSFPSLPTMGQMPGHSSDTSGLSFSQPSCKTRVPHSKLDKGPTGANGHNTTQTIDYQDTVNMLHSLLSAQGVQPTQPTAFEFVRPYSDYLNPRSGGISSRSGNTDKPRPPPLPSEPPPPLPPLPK
Test: Protein kinase assay, CDK9/cyclin T
Settings: 15 µM ATP, 30 °C, triplicates
Description: Evaluation of the protein kinase inhibitory activity was performed in vitro as previously described. Briefly, homogenization buffer: 60 mM β-glycerophosphate, 15 mM p-nitrophenylphosphate, 25 mM Mops (pH 7.2), 15 mM EGTA, 15 mM MgCl2, 1 mM dithiothreitol, 1 mM sodium vanadate, 1 mM NaF, 1 mM phenylphosphate, 10 µg leupeptin mL^−1, 10 µg aprotinin mL^−1, 10 µg soybean trypsin inhibitor mL^−1, and 100 µg benzamidine. […]
Entries annotated with measured IC50
measurement_name: IC50 (µM)

compound | tgt | measurement_name | comparison_sign | reported_measurement
C[C@@]12CCC(=O)c3coc(c31)C(=O)c1cc3c(O)ccc(OS(=O)(=O)O)c3cc12 | CDK9/cyclin T (Homo sapiens, UniProt P50750) | IC50 | = | 0.5
CO[C@]12OC(O)C3=C1[C@@](C)(CCC3=O)c1cc3c(OS(=O)(=O)O)ccc(O)c3cc1C2=O (stereo partly shown) | CDK9/cyclin T (Homo sapiens, UniProt P50750) | IC50 | > | 10
C[C@@]12CCCc3coc(c31)C(=O)c1cc3c(cc12)C(=O)C1=C(NCCS1(=O)=O)C3=O | CDK9/cyclin T (Homo sapiens, UniProt P50750) | IC50 | = | 3
C[C@@]12CCCc3coc(c31)C(=O)c1cc3c(cc12)C(=O)C=C(NCCS(=O)(=O)O)C3=O | CDK9/cyclin T (Homo sapiens, UniProt P50750) | IC50 | > | 10
